This collection of values is drawn from paper PMC4753534.

- Tested on: HCV-Luc (HCV JFH-1 strain, genotype 2a)
- protocol.details: microbe, parasite or virus in culture
- Type: cell-based
- experimental.conditions: Hepatitis C virus, GETYPE2A, values in nM
value.type: EC50

Prompt: # EC50 lookup, item NCCOCCN1CCN(C(c2ccccc2)c2ccc(Cl)cc2)CC1 (racemic)
Completion: < 8 nM
